Overview of recorded T/C for various compounds
Test system: P335 leukemia ip, BDF1 mice, survival T/C %
Assay: NCI In Vivo Anticancer Drug Screen. Data for tumor model P335 Leukemia (intraperitoneal) in B6D2F1 (BDF1) mice
Conditions: endpoint: mean survival time; dose: 6.25 mg/kg/injection; schedule: Q01DX Z (ip); vehicle: carboxymethylcellulose (CMC); higher = longer survival
Toxic doses and inconclusive results are not listed.

Some solved cases for reference:
compound=Nc1ncnc2[nH]ncc12 system_name="P335 leukemia ip, BDF1 mice, survival T/C %" reported_measurement="89 % of control"
compound="CSc1ncnc2c1ncn2C1OC(CO)C(O)C1O (centres undefined)" system_name="P335 leukemia ip, BDF1 mice, survival T/C %" reported_measurement="110 % of control"
compound=O=C(O)CCCc1ccc(N(CCCl)CCCl)cc1 system_name="P335 leukemia ip, BDF1 mice, survival T/C %" reported_measurement="89 % of control"

--- query ---
Task item: Which T/C is listed for C[n+]1c2ccccc2nc2c(N)cc(N)cc21 ?
Reply: 124 % of control
